Just for reference, paper PMC9352680 is where these values come from.

Listed below: Kd values for each entry.
# TARGET_OF_ASSAY: T1, PUF4 RNA-binding domain (Saccharomyces cerevisiae, UniProt P25339 537-888)
# T1 sequence: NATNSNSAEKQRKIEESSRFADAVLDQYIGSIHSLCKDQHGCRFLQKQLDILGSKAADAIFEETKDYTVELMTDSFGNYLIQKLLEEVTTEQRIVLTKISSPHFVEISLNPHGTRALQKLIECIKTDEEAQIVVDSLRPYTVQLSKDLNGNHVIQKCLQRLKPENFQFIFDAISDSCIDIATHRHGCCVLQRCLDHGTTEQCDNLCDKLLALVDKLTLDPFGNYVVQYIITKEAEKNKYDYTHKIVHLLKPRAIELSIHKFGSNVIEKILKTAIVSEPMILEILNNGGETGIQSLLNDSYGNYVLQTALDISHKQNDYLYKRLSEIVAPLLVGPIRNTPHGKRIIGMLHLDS
# EXPERIMENTAL_DETAILS: Mg; RNA-MaP; 20 mM Na-HEPES pH 7.4, 30 mM KOAc, 0.75 mM MgCl2, 0.1% Tween-20, 5% glycerol, 0.1 mg/mL BSA, 2 mM DTT; 25 C; 0.0125-409.6 nM protein
# CONDITION_PARAMETERS: tags: N-His6-TEV cleaved; C-SNAP kept, Cy3B-labelled; label: tethered on chip by stalled RNA polymerase
Please format your answer as a value with the unit trailing.

Examples with their reported Kd follow.
UCUCUUUGUCUUAUCAUCUCUU (ssRNA) [Ib_S1_P5E.1_K5.1_C5.1_H5.1_[A4C]_A5.1_F5.1_[T9C]_T5.1] = 2040 nM
UCUCUUUGUAAACUAAUCUCUU (ssRNA) [Ic_S1_P5E.1_K5.1_C5.1_H5.1_A5.1_[T5A]_[T6A]_[A7C]_F5.1_[T9A]_T5.1] = 3.01 nM

// Kd lookup, key: Id_ii_S2_P5E.2_K5.1_C5.2_[T-1C]_H5.1_A5.1_F5.1_T5.2_[T11A]_[A12G] (ssRNA) RNA: UUUGAUUAAUAUGAUAUCGUUCUUUCUCCUGUAUUAUUAAGUUCUUUCUCGAUAUCAUAUUAAUCUUU
9.77 nM
